assayedSystem: Acetylcholinesterase (Electrophorus electricus, UniProt O42275)
Sequence (O42275 whole entry): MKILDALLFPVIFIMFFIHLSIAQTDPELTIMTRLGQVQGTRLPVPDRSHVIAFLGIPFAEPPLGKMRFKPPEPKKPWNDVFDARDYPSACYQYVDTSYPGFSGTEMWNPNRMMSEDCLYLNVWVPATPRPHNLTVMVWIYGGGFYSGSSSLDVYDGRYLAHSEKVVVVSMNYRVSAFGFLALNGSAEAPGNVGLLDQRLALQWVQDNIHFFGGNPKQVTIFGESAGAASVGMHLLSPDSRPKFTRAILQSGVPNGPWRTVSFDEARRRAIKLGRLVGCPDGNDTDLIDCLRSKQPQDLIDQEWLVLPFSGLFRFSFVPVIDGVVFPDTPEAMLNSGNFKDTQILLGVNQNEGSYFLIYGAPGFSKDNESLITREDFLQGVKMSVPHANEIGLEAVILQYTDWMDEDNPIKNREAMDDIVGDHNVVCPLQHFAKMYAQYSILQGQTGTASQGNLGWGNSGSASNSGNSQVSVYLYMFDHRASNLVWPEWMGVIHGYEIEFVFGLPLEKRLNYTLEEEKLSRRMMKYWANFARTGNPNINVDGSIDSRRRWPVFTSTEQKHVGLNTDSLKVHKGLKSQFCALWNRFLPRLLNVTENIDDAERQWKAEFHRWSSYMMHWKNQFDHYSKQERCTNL
assayRemarks: Inhibition of Electric eel AChE using ATCI as substrate preincubated with enzyme for 60 mins followed by substrate addition and measured for 120 secs by spectrophotometric based Ellman's method
outcomeMeasure: pIC50
Value format note: pIC50 is -log10 of concentration (mol/L); just state the number.

Given O=c1c2ccccc2oc2cc(OCCCCCN3CCCCC3)cc(O)c12 , state its recorded pIC50.
6.34

====

Listing: pIC50 of selected molecules
assayedSystem: Amine oxidase [flavin-containing] B (Homo sapiens)
Sequence (P27338 whole entry): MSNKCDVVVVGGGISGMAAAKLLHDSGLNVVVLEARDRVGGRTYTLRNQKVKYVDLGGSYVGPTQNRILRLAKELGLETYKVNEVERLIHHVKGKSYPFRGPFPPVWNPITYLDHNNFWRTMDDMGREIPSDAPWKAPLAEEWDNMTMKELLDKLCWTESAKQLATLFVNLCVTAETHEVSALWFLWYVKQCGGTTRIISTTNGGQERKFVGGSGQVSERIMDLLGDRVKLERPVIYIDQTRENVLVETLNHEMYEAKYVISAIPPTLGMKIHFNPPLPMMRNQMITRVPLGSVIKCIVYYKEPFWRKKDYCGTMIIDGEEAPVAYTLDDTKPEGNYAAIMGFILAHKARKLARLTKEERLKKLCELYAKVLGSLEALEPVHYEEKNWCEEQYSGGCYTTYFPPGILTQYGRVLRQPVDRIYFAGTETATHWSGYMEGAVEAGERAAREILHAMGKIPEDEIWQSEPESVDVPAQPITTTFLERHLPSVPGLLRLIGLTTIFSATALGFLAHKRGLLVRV
assayRemarks: biochemical
Description: Inhibition of recombinant human MAO-B expressed in baculovirus infected BTI cells using p-tyramine as substrate by fluorometric assay
Answer as the number alone; pIC50 is minus log10 of concentration in mol/L.

As a guide, the following entries are already answered.
# molecule, pIC50
rows = [
    ("O=c1c2ccc(Cl)cc2oc2ccc(OCCCCCN3CCCCCC3)cc12", 5.68),
    ("O=c1c2ccc(Cl)cc2oc2ccc(OCCCCCCN3CCCCCC3)cc12", 6.01),
    ("O=c1c2ccc(Cl)cc2oc2ccc(OCCCCCCN3CCCCC3)cc12", 6.02),
    ("CC1CCN(CCCCCOc2ccc3oc4ccccc4c(=O)c3c2)CC1", 5.73),
    ("CC1CCN(CCCCCOc2ccc3oc4cc(Cl)ccc4c(=O)c3c2)CC1", 5.81),
]

Could you share what pIC50 was measured for O=c1c2ccccc2oc2ccc(OCCCCCCN3CCCCC3)cc12 , tested on Amine oxidase [flavin-containing] B (Homo sapiens)?
6.03

Note, next up: O=c1c2cc(Cl)ccc2oc2ccc(OCCCCCN3CCCCCC3)cc12
6.05

Same for CC1CCN(CCCCCCOc2ccc3oc4ccccc4c(=O)c3c2)CC1
6.07

Further, for O=c1c2cc(Cl)ccc2oc2ccc(OCCCCCCN3CCCCCC3)cc12 ?
5.86

Then this molecule: O=c1c2ccccc2oc2ccc(OCCCCCN3CCCCCC3)cc12
6.11

Query CC1CCN(CCCCCOc2ccc3oc4ccc(Cl)cc4c(=O)c3c2)CC1 next
6.17

For CC1CCCN(CCCCCCOc2ccc3oc4ccccc4c(=O)c3c2)C1 (configuration not stated) then?
5.81

====

assayedSystem: Acetylcholinesterase (Homo sapiens, UniProt P22303)
Sequence (P22303 whole entry): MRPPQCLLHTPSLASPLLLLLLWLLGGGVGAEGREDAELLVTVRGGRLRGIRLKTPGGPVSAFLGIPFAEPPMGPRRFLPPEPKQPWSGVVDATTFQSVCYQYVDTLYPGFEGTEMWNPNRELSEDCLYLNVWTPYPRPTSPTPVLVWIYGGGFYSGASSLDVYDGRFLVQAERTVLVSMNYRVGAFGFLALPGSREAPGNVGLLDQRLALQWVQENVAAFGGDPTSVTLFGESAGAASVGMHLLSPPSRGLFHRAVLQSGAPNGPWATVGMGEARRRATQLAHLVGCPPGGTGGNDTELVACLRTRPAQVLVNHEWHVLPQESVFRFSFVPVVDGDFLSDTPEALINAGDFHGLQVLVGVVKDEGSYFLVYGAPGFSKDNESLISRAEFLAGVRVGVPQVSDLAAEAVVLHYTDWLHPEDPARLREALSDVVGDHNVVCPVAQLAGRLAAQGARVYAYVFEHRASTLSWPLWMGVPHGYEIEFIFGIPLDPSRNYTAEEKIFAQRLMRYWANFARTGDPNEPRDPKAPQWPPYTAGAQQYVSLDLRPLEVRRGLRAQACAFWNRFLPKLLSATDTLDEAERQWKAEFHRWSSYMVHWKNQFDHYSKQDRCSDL
assayRemarks: Inhibition of recombinant human AChE using ATCI as substrate incubated for 5 mins followed by substrate addition and measured after 5 mins by spectrophotometric based Ellman's method
outcomeMeasure: IC50 (nM)
Please reply with the bare figure in nM and do not write the unit itself.

# smilesStructure, reportedValue
data = [
    ("O=c1c2ccccc2oc2ccc(OCCCCCN3CCCCCC3)cc12", 392),
]

I am curious: what IC50 value has been reported for O=c1c2cc(Cl)ccc2oc2ccc(OCCCCCN3CCCCCC3)cc12 ?
120
